Reference source: patent US20220282217A1

Target: HLA-A02.01 (human)
Assay: competition vs radiolabeled reference peptide on purified MHC I, gel filtration
Details: remark: other sources report otherwise
Field: IC50. Provide a value for each of the binders that follow.
Answers are plain numbers, in nM.

INSERT INTO measurements (binder, measured_value) VALUES
  ('MANGSLLNYL', 1080);

Batch request: IC50 for each of the following binders.
1. SLPRFILMEL
2. QLIMQLMPFG
3. MQLMPFGCLL
4. CLTSTVQLIM
5. VQLIMQLMPF
6. YMANGSLLN
7. QLIMQLMPF

26
5930
20
716
5490
4440
227

Batch request: IC50 for each of the following binders.
1. RVAKIADFGM
2. STVQLIMQL
3. IMQLMPFGCL

125
8540
837
